# Test system: RARb homodimer (NR concentration 270 nM)
# assay-text: PBM binding z-score (relative to random genomic background probes); higher = stronger binding; sequences stand for … in GC…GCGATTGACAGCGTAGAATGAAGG
Examples of sequences with documented PBM binding z-score follow.
// response body must contain only the number

[
  {
    "query-sequence": "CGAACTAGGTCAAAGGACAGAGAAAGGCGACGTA",
    "experimental-value": 2.7
  },
  {
    "query-sequence": "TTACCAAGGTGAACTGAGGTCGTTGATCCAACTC",
    "experimental-value": 2.38
  },
  {
    "query-sequence": "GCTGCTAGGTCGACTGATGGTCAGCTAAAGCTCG",
    "experimental-value": 0.638
  },
  {
    "query-sequence": "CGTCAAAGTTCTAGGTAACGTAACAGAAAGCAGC",
    "experimental-value": -0.287
  },
  {
    "query-sequence": "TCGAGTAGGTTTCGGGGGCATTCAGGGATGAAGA",
    "experimental-value": 1.5
  }
]

Here is another sequence to look at.
Recorded PBM binding z-score (sequence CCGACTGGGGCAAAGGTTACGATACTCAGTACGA ): 2.03
